meta.source: patent US20200377505A1

Target under test: human TRPC6 (Homo sapiens)
Construct: expressed in transfected cells; host or cells: HEK 293
Sequence (Q9Y210 whole entry): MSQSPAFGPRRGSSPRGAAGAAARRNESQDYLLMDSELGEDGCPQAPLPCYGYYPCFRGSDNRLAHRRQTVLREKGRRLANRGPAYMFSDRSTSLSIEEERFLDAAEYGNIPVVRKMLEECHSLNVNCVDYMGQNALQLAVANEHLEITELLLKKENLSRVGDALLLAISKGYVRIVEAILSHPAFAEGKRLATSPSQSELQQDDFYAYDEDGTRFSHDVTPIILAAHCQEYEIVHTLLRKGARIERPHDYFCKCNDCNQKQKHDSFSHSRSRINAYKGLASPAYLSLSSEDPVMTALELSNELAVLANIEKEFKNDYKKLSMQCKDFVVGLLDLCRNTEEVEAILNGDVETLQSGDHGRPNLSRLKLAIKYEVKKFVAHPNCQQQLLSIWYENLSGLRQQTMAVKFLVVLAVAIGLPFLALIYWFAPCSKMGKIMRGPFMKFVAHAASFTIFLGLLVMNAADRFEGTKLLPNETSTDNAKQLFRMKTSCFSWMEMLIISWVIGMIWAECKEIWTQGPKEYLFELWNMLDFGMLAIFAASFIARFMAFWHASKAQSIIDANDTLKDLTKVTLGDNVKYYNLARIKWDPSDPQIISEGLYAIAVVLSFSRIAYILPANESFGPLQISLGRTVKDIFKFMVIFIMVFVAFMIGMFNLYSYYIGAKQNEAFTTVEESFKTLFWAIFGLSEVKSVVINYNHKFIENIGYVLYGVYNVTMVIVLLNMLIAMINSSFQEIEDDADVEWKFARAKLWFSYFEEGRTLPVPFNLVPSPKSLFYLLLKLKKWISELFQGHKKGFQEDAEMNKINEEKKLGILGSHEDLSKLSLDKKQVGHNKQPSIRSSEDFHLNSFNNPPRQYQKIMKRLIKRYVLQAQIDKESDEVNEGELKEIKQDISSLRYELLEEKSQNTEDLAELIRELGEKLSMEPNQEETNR
Assay remarks: TRPC6 fluorescence-based assay (Ca2+ flux assay in FLIPR format), cells overexpressing TRPC6
Assay type: cell-based
Measurement conditions: 5 μM of test compound, following Carbachol stimulation
Below, each entry is listed with its recorded inhibition at 5 µM.
Unit % implied. Number only.

The following compounds have reported results that may help.
1. Cn1c(=O)c2c(ncn2CC(=O)OCCCC(c2ccc(F)cc2)c2ccc(F)cc2)n(C)c1=O = 60.7
2. COc1ccc(CNc2nc3ccccc3n2C)c(OC)c1 = 19.4
3. CC(C)CCn1c(-c2ccc(N)cc2)nc2ccccc21 = 27.2
4. COc1ccc(/C=N/c2nc3ccccc3n2Cc2ccccc2)cc1OC = 90.5

Now turn to the next compound.
[in] Entry `CCN(CC)CCn1c(NCc2ccccc2OC)nc2ccccc21` needs its inhibition at 5 µM filled in; supply it.
[out] 21.9
